Exercise: for every item that follows, state its recorded IC50.
- targetOfAssay: BRM (Homo sapiens, UniProt P51531)
- Sequence (P51531 whole entry): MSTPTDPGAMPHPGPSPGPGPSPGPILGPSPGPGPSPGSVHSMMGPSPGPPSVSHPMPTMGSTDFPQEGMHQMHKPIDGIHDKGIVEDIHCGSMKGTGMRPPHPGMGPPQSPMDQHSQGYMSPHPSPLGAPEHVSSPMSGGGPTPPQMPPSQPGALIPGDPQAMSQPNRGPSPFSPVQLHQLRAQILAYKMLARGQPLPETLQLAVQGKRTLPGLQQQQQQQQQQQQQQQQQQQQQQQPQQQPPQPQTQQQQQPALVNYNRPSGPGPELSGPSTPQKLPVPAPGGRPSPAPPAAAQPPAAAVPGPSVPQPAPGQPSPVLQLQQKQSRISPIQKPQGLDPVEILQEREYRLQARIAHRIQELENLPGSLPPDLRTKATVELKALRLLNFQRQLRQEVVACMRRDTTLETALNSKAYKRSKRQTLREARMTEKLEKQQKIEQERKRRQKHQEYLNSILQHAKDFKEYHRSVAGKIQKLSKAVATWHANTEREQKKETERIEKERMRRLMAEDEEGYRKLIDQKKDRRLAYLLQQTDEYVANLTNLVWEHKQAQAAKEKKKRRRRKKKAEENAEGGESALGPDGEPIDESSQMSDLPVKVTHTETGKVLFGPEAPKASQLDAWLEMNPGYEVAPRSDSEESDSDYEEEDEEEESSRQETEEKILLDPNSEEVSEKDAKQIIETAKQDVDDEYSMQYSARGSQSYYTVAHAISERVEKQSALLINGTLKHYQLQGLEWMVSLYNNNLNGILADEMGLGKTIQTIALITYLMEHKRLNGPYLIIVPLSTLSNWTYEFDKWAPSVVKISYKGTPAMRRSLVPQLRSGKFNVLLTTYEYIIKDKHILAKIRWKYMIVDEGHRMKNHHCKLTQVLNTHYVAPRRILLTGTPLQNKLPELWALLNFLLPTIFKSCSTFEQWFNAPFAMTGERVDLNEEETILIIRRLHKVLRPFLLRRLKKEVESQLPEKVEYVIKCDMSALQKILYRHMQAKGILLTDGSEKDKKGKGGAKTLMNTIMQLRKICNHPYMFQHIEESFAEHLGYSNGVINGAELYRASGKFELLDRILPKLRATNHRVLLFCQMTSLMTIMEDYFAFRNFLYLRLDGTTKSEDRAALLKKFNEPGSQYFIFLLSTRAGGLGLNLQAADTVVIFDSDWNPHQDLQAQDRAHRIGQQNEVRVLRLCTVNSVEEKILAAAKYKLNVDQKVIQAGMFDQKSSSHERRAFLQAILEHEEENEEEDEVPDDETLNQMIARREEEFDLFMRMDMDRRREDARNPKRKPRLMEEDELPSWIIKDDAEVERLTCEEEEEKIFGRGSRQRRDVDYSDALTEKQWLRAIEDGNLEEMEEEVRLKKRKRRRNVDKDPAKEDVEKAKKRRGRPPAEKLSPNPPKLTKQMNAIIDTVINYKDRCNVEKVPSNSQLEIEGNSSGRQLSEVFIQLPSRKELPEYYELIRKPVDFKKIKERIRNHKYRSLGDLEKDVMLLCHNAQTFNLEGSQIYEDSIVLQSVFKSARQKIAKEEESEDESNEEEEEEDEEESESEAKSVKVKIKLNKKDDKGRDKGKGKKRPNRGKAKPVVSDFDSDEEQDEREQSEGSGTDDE
- method: ATPase catalytic activity assay (ADP-Glo), BRM
- reportedConditions: BRM ATPase: IC50 (uM), 30 nM BRM, 400 μM ATP

[[record]]
chemicalstring = "O=C(NCc1cc2nc(-c3cncc(C4CC4)n3)ccc2cn1)c1cnc2c(c1)[C@@](F)(C(F)F)CCO2"
result = "0.1 to 0.5 µM"

[[record]]
chemicalstring = "C[C@@]1(C#N)COCc2ccc(C(=O)NCc3cc4nc(-c5ccc(C(F)F)cc5)ccc4cn3)cc21"
result = "< 0.1 µM"

[[record]]
chemicalstring = "C[C@@]1(C#N)COCc2ccc(C(=O)NCc3cc4nc(-c5cccc(N6CCC6)n5)ccc4cn3)cc21"
result = "< 0.1 µM"


Now for a further compound.
IC50 lookup needed for Cc1cc(-c2ccc3cnc(CNC(=O)c4ccc5c(c4)[C@](C)(C#N)COC5)cc3n2)on1 , thanks.
0.1 to 0.5 µM
